# targetEntity: T1, human D2H transporter receptor domain, amino acid residues 387-685, His-tag fusion protein (human, UniProt Q07837 387-685)
# T1 construct: Expressed as His-tag fusion, purified under denaturing conditions, coated on plates; not shown: poly-histidine tag (pET His-tag) at the NH2-terminal end
# T1 sequence: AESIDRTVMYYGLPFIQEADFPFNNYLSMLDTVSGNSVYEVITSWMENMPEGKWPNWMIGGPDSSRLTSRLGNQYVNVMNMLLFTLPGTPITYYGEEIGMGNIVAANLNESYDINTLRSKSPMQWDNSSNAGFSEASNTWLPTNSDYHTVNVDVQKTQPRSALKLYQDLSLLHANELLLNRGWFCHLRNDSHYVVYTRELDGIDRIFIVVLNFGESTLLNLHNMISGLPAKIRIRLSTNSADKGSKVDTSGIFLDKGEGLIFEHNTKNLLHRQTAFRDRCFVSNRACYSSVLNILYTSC
# assayExplanation: phage ELISA, OD on D2H over OD on BSA
experimentalReadout: D2H/BSA (ratio)
// note: answer is a bare numeric in ratio

Completed entries (count: 5):
SGRTTSEISGLWGWGDDRSGYGWGNTLRPNYIPYRQATNRHRYT (pIII and flanks not included) [phage DCX26]	4
RYKHDIGCDAGVDKKSSSVRGGCGAHSSPPRAGRGPRGTMVSRL (pIII and flanks not included) [phage DCX8]	3
RWNWTVLPATGGHYWTRSTDYHAINNHRPSIPHQHPTPI (pIII and flanks not included) [phage DCX33]	6
RYSGLSPRDNGPACSQEATLEGCGAQRLMSTRRKGRNSRPGWTL (pIII and flanks not included) [phage DCX42]	2
SQGSKQCMQYRTGRLTVGSEYGCGMNPARHATPAYPARLLPRYR (pIII and flanks not included) [phage DCX11]	3

Now, please, on to the next binder.
Challenge: Given the binder SVGNDKTSRPVSFYGRVSDLWNASLMPKRTPSSKRHDDG (pIII and flanks not included) [phage DCX45] , write its reported D2H/BSA.
Response given: 4
